Form field: growth inhibition (one value per entry).
Assay: NCI Yeast Anticancer Drug Screen. Data for the mlh1 rad18 strain (AID 175)
Details: S. cerevisiae mlh1 rad18 strain growth inhibition; at 5.0 µM (retest, dose inferred, filed as 0.5); stronger effect = higher value
The panel holds about 79,000 compounds, 15% with a hit somewhere; the sample as a whole holds those more often.

compound: Cc1ccc2nc(N/N=C/c3cccc(C)n3)cc(C)c2c1
growth inhibition / %: 4
--
compound: O=C1OC(c2cccc(Cl)c2)Sc2ccccc21 (stereo not given)
growth inhibition / %: 0
--
compound: CCCCCCCCCCCCCCCC(=O)NCC[N+](CC)(CC)Cc1ccc(C[N+](CC)(CC)CCNC(=O)CCCCCCCCCCCCCCC)cc1
growth inhibition / %: 97
--
compound: O=C(O)CN1CCNCCN(CC(=O)O)CCNCC1
growth inhibition / %: 66
--
compound: O/N=C1/C(=C/c2ccc(Cl)c(Cl)c2)CCCC1C(NO)c1ccc(Cl)c(Cl)c1 (stereo not given)
growth inhibition / %: 1
--
compound: CCOc1cc2c(OCc3ccccc3)cc3c4cc(OC)c(OC)cc4c[n+](C)c3c2cc1OC
growth inhibition / %: 97
--
compound: O=C(O)C(=O)Cc1ccccc1[N+](=O)[O-]
growth inhibition / %: -2
--
compound: CCc1c(O)sc2c(c1=O)C(=NCC(C)C)CC(C)(C)N2
growth inhibition / %: -12
--
compound: CSC(=S)n1nc(-c2ccccc2)c(N=Nc2ccc(Br)cc2)c1-c1ccccc1
growth inhibition / %: 5
--
compound: COc1ccc(/C=C(/NC(=O)c2ccccc2)C(=O)Nc2ccccc2)cc1OC
growth inhibition / %: -4
